The following molecules are shown together with reported Ki values.
- assayed target: UniProtKB Q72874
endpoint name: Ki (µM)

• COC(=O)[C@@H](NC(=O)[C@@H](NC(=O)[C@H](C)N1CCC([C@H](C)NC(=O)[C@H](C)N)=CC(Cc2ccccc2)C1=O)C(C)C)C(C)C (stereo in doubt; form 1) = 372
• COC(=O)[C@@H](NC(=O)[C@@H](NC(=O)[C@H](C)N1CCC([C@H](C)NC(=O)[C@H](C)N)=CC(Cc2ccccc2)C1=O)C(C)C)C(C)C (stereo in doubt; form 2) = 147
• COC(=O)[C@@H](NC(=O)[C@H](C(C)C)N1CCC(C(Cc2ccccc2)NC(=O)[C@H](C)NC(=O)[C@H](C)NC(=O)[C@@H](N)CO)=CCC1=O)C(C)C (stereo in doubt; form 2) = 1700
